target.system: MBP-FoxP3dN (Mus musculus, UniProt Q99JB6 188-423)
Sequence: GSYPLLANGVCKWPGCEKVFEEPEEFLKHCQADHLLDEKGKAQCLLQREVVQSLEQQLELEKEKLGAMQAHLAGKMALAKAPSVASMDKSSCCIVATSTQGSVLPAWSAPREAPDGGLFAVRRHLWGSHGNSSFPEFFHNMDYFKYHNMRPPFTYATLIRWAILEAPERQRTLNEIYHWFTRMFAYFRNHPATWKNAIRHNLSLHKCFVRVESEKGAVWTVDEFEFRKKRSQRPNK
experiment.notes: PD-seq (MBP pull-down with sequencing); 20 mM Tris-HCl pH 7.5, 100 mM NaCl, 1.5 mM MgCl2, 0.4 uM protein, 0.1 uM dsDNA library, 30 min, room temperature, amylose pull-down; high values mean tight binding
condition.details: protein: recombinant; tags: His6-MBP; chain copies: 2; dsDNA, one strand shown
In all, about 16,000 sequences were measured (“rpm ratio (pull-down/input)”: median about 0.5, highest 2% from about 5.5 on). The full list was thinned out, with the highest values kept by preference.
result.type: binding signal

Task: Consider the sequence `GATGATTGTTCTCCCAGCTGATGAATTGTGTTTCTCGAGTAAACAAATTTTCCTAATCTTTCTGTTCAAGCGCCATCTAC` and give its recorded binding signal.
Output: 4.32 RPM ratio (pull-down/input)

Task: Consider the sequence `GATGATTGTTCTCCCAGCTGATGAATTCTGCGGGTCGAGTAAACAAATTTTCCTAATCTTTCTGTTCAAGCGCCATCTAC` and give its recorded binding signal.
Output: 0.928 RPM ratio (pull-down/input)

Task: Consider the sequence `GATGATTGTTCTCCCAGCTGATGAATTTAGCGGATCGAGTAAACAAATTTTCCTAATCTTTCTGTTCAAGCGCCATCTAC` and give its recorded binding signal.
Output: 0.292 RPM ratio (pull-down/input)

Task: Consider the sequence `GATGATTGTTCTCCCAGCTGATGAATTGTTAAAATCGAGTAAACAAATTTTCCTAATCTTTCTGTTCAAGCGCCATCTAC` and give its recorded binding signal.
Output: 0.291 RPM ratio (pull-down/input)

Task: Consider the sequence `GATGATTGTTCTCCCAGCTGATGAATTACTTCTATCGAGTAAACAAATTTTCCTAATCTTTCTGTTCAAGCGCCATCTAC` and give its recorded binding signal.
Output: 0.347 RPM ratio (pull-down/input)

Task: Consider the sequence `GATGATTGTTCTCCCAGCTGATGAATTTTTTGAATCGAGTAAACAAATTTTCCTAATCTTTCTGTTCAAGCGCCATCTAC` and give its recorded binding signal.
Output: 0.229 RPM ratio (pull-down/input)

Task: Consider the sequence `GATGATTGTTCTCCCAGCTGATGAATTTCATTGGTCGAGTAAACAAATTTTCCTAATCTTTCTGTTCAAGCGCCATCTAC` and give its recorded binding signal.
Output: 1.11 RPM ratio (pull-down/input)

Task: Consider the sequence `GATGATTGTTCTCCCAGCTGATGAATTTTTGTGGTCGAGTAAACAAATTTTCCTAATCTTTCTGTTCAAGCGCCATCTAC` and give its recorded binding signal.
Output: 0.472 RPM ratio (pull-down/input)

Task: Consider the sequence `GATGATTGTTCTCCCAGCTGATGAATTTGCCTTGTCGAGTAAACAAATTTTCCTAATCTTTCTGTTCAAGCGCCATCTAC` and give its recorded binding signal.
Output: 1.15 RPM ratio (pull-down/input)

Task: Consider the sequence `GATGATTGTTCTCCCAGCTGATGAATTGAGTACTTCGAGTAAACAAATTTTCCTAATCTTTCTGTTCAAGCGCCATCTAC` and give its recorded binding signal.
Output: 0.524 RPM ratio (pull-down/input)

Task: Consider the sequence `GATGATTGTTCTCCCAGCTGATGAATTTGTGTACTCGAGTAAACAAATTTTCCTAATCTTTCTGTTCAAGCGCCATCTAC` and give its recorded binding signal.
Output: 6.72 RPM ratio (pull-down/input)

Task: Consider the sequence `GATGATTGTTCTCCCAGCTGATGAATTGATGTGTTCGAGTAAACAAATTTTCCTAATCTTTCTGTTCAAGCGCCATCTAC` and give its recorded binding signal.
Output: 1.66 RPM ratio (pull-down/input)

Task: Consider the sequence `GATGATTGTTCTCCCAGCTGATGAATTCTTGTGTTCGAGTAAACAAATTTTCCTAATCTTTCTGTTCAAGCGCCATCTAC` and give its recorded binding signal.
Output: 0.821 RPM ratio (pull-down/input)

Task: Consider the sequence `GATGATTGTTCTCCCAGCTGATGAATTGAGACTATCGAGTAAACAAATTTTCCTAATCTTTCTGTTCAAGCGCCATCTAC` and give its recorded binding signal.
Output: 0.692 RPM ratio (pull-down/input)

Task: Consider the sequence `GATGATTGTTCTCCCAGCTGATGAATTCGCGGAGTCGAGTAAACAAATTTTCCTAATCTTTCTGTTCAAGCGCCATCTAC` and give its recorded binding signal.
Output: 0.23 RPM ratio (pull-down/input)

Task: Consider the sequence `GATGATTGTTCTCCCAGCTGATGAATTTACTTTCTCGAGTAAACAAATTTTCCTAATCTTTCTGTTCAAGCGCCATCTAC` and give its recorded binding signal.
Output: 1.32 RPM ratio (pull-down/input)

Task: Consider the sequence `GATGATTGTTCTCCCAGCTGATGAATTTCTTGCGTCGAGTAAACAAATTTTCCTAATCTTTCTGTTCAAGCGCCATCTAC` and give its recorded binding signal.
Output: 0.535 RPM ratio (pull-down/input)

Task: Consider the sequence `GATGATTGTTCTCCCAGCTGATGAATTTATTGGTTCGAGTAAACAAATTTTCCTAATCTTTCTGTTCAAGCGCCATCTAC` and give its recorded binding signal.
Output: 5.89 RPM ratio (pull-down/input)

Task: Consider the sequence `GATGATTGTTCTCCCAGCTGATGAATTGTTACGATCGAGTAAACAAATTTTCCTAATCTTTCTGTTCAAGCGCCATCTAC` and give its recorded binding signal.
Output: 0.792 RPM ratio (pull-down/input)

Task: Consider the sequence `GATGATTGTTCTCCCAGCTGATGAATTGCTCCAATCGAGTAAACAAATTTTCCTAATCTTTCTGTTCAAGCGCCATCTAC` and give its recorded binding signal.
Output: 0.467 RPM ratio (pull-down/input)

Task: Consider the sequence `GATGATTGTTCTCCCAGCTGATGAATTTGTGTTCTCGAGTAAACAAATTTTCCTAATCTTTCTGTTCAAGCGCCATCTAC` and give its recorded binding signal.
Output: 6.29 RPM ratio (pull-down/input)

Task: Consider the sequence `GATGATTGTTCTCCCAGCTGATGAATTCTATAGTTCGAGTAAACAAATTTTCCTAATCTTTCTGTTCAAGCGCCATCTAC` and give its recorded binding signal.
Output: 0.74 RPM ratio (pull-down/input)

Task: Consider the sequence `GATGATTGTTCTCCCAGCTGATGAATTTGTTTATTCGAGTAAACAAATTTTCCTAATCTTTCTGTTCAAGCGCCATCTAC` and give its recorded binding signal.
Output: 7.73 RPM ratio (pull-down/input)

Task: Consider the sequence `GATGATTGTTCTCCCAGCTGATGAATTGGTTTATTCGAGTAAACAAATTTTCCTAATCTTTCTGTTCAAGCGCCATCTAC` and give its recorded binding signal.
Output: 4.04 RPM ratio (pull-down/input)

Task: Consider the sequence `GATGATTGTTCTCCCAGCTGATGAATTGAGACTTTCGAGTAAACAAATTTTCCTAATCTTTCTGTTCAAGCGCCATCTAC` and give its recorded binding signal.
Output: 1.22 RPM ratio (pull-down/input)

Task: Consider the sequence `GATGATTGTTCTCCCAGCTGATGAATTGGATCGTTCGAGTAAACAAATTTTCCTAATCTTTCTGTTCAAGCGCCATCTAC` and give its recorded binding signal.
Output: 0.402 RPM ratio (pull-down/input)

Task: Consider the sequence `GATGATTGTTCTCCCAGCTGATGAATTTGTGTGTTCGAGTAAACAAATTTTCCTAATCTTTCTGTTCAAGCGCCATCTAC` and give its recorded binding signal.
Output: 5.99 RPM ratio (pull-down/input)

Task: Consider the sequence `GATGATTGTTCTCCCAGCTGATGAATTGGTTATTTCGAGTAAACAAATTTTCCTAATCTTTCTGTTCAAGCGCCATCTAC` and give its recorded binding signal.
Output: 3.1 RPM ratio (pull-down/input)

Task: Consider the sequence `GATGATTGTTCTCCCAGCTGATGAATTCGGAACGTCGAGTAAACAAATTTTCCTAATCTTTCTGTTCAAGCGCCATCTAC` and give its recorded binding signal.
Output: 0.297 RPM ratio (pull-down/input)
